Test system: Escherichia coli TOP10;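 also: peptides expressed intracellularly from a pBAD plasmid library in pooled LB shake-flask culture, induced with 0.3% L-arabinose, DNA abundance read by NGS, three biological replicates, DESeq2 with apeglm shrinkage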
EXPERIMENTAL_DETAILS: shrunken log2 fold change of peptide-encoding DNA abundance (4.5 h post-induction vs induction); higher = less antimicrobial activity (less host growth inhibition)
CONDITION_NOTES: time post-induction: 4.5 h; library: site-saturation at positions 5, 18, 19, 20
Could you please report measured shrunken log2 fold change for the items listed next?
Numbers only.

Prompt: Please report the measured shrunken log2 fold change for RRIRIRPPRLPRPRPRPYGGPRP
Completion: 0.00177

Prompt: Look up shrunken log2 fold change of RRIRYRPPRLPRPRPRPFYPPRP and report it.
Completion: -0.747

Prompt: Dear colleague, please send me the reported shrunken log2 fold change for RRIRFRPPRLPRPRPRPHETPRP when you can.
Completion: -0.347

Prompt: Report shrunken log2 fold change, nothing else, for this sequence: RRIRTRPPRLPRPRPRPQGRPRP
Completion: -0.0678

Prompt: Determine from records and report shrunken log2 fold change for RRIRSRPPRLPRPRPRPYPVPRP
Completion: -0.0856

Prompt: Identify shrunken log2 fold change associated with the sequence RRIRERPPRLPRPRPRPAPNPRP
Completion: 0.258

Prompt: Item RRIRNRPPRLPRPRPRPHNLPRP : provide shrunken log2 fold change
Completion: -0.272

Prompt: Tell me measured shrunken log2 fold change for RRIRLRPPRLPRPRPRPKCIPRP please.
Completion: -0.9

Could you report shrunken log2 fold change for every entry in the following list?
1. RRIRLRPPRLPRPRPRPPEEPRP
2. RRIRSRPPRLPRPRPRPIRDPRP
3. RRIRPRPPRLPRPRPRPHTRPRP
4. RRIRSRPPRLPRPRPRPQDHPRP
5. RRIRWRPPRLPRPRPRPYMWPRP

Completion:
1. 0.0505
2. 0.156
3. 0.171
4. -0.794
5. 0.00889

Each of the following entries comes with a recorded value; kindly state shrunken log2 fold change for each.
1. RRIRKRPPRLPRPRPRPHWHPRP
2. RRIRWRPPRLPRPRPRPPICPRP

Completion:
-0.0666
-0.0702
